Please go through the items and note down their inhibition.
- measured_target: Cytochrome P450 2C9 (Homo sapiens)
- method_summary: blockers of cytochrome P450 2C9 activity – biochemical, luminescence, ADME assay, primary screen (AID 777)
- condition_notes: CYP2C9 Supersomes, luciferin-H conversion, at 5 µM, active compounds read high
Screen size: about 96,000 compounds; about 19,000 (20%) were called active. These entries were drawn from the full list.
Entry rule: numbers only, all in %.

The recorded inhibition for entry `Cc1ccc(C(=O)NNC(=O)OC(C)(C)C)c(Cl)c1` equals 1.9

The recorded inhibition for entry NC(=O)CSC1=Nc2ccccc2C2=NC(CCC(=O)NCc3ccc(F)cc3)C(=O)N12 (stereo unspecified) equals 16.8

The recorded inhibition for entry Cc1ccc2c(c1)C(O)(CC(=O)c1cccnc1)C(=O)N2 (stereo unspecified) equals 8.4

The recorded inhibition for entry `O=c1oc2cc(O)ccc2cc1-c1ccc(F)cc1` equals 27.8

The recorded inhibition for entry C=CCC(NCc1ccco1)c1ccc(OC)cc1 (stereo unspecified) equals -14.6

The recorded inhibition for entry `C=CCNc1ncnc2ccc(Br)cc12` equals -10.3

The recorded inhibition for entry `CC1(C)CC(=O)C=C(NCc2ccncc2)C1` equals 7.3

The recorded inhibition for entry `Cc1cc(C(=O)O)c(S(C)(=O)=O)s1` equals -5.1

The recorded inhibition for entry `CCOCCc1c(O)nc(SCC(=O)NCc2ccco2)[nH]c1=O` equals -8.3

The recorded inhibition for entry CCOc1ccc(/C(O)=C2/C(=O)C(=O)N(Cc3cccnc3)C2c2ccc(N(C)C)cc2)c(C)c1 (stereo unspecified) equals 20.8

The recorded inhibition for entry O=C(CSC1=Nc2ccccc2C2=NC(CC(=O)NCc3ccco3)C(=O)N12)NCc1ccco1 (stereo unspecified) equals 65.1
